For each entry below, report its relative activity value.
# target system: glucagon receptor (UniProt P47871 26-477, limits assumed)
# Sequence (P47871 26-477 limits assumed): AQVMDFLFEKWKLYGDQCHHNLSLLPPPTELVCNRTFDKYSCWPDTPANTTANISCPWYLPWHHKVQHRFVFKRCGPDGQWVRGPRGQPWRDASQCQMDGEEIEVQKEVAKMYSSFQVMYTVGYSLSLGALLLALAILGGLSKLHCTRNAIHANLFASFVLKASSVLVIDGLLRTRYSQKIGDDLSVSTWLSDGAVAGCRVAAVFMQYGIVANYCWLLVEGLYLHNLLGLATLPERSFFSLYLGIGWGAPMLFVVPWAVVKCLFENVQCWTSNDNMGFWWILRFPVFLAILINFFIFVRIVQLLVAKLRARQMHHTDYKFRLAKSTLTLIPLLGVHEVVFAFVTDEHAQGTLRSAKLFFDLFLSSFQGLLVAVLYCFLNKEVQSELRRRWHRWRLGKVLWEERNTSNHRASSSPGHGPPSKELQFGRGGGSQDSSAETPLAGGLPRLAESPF
# assay overview: cell-based or functional assay
Bridges are numbered along the chain shown (N, C = ends). Primed or numbered codes have the meaning given here. Where no end group is shown, it is not given here. [ ]: non-standard residue; d: D form. PEG 40 kDa″ = polyethylene glycol of 40 kDa covalently attached to the side chain; PEG 40 kDa = PEG (40 kDa) covalently attached to Cys; Aib = CC(C)(N)C(=O)O
One number for each entry, in %.

Example cases with answers are listed next.
binder: Y[Aib]QGTFTSDYSIYLDEQAAKEFVNWLLAGKGKKNWLKHNITQC-NH2 (lactam 16-20) [mt-207]
measurement label: relative activity
val: 1.31
--
binder: Y[Aib]QGTFTSDYSIYLDEQAAKEFVC(PEG 40 kDa)WLLAG-NH2 (lactam 16-20) [mt-172]
measurement label: relative activity
val: 0.45
--
binder: Y[Aib]EGTFTSDYSIYLDEQAAKEFVNWLLAGKGKKNWLKHNITQC-NH2 (lactam 16-20) [mt-206]
measurement label: relative activity
val: 0.01

Please look at the items below and tell me relative activity for each one, in order.
1. Y[Aib]QGTFTSEYSKYLDEQAAKEFVNWLLAGGPSSGAPPPSC-NH2 (lactam 9-12, 16-20; not fully specified) [mt-209]
2. Y[Aib]EGTFTSDYSIYLDEQAAKEFVNWLLAGKGKKNWLKHNITQC(PEG 40 kDa″)-NH2 (lactam 16-20) [mt-208]

Reply |
1. 0.9
2. 0.01
